Target: T1, recombinant human C1r2s2 tetramer (human, UniProt P09871 16-688; P00736 18-705)
T1 construct: C1s and C1r co-expressed in HEK293/FreeStyle 293-F and purified from conditioned medium
T1 chain 1: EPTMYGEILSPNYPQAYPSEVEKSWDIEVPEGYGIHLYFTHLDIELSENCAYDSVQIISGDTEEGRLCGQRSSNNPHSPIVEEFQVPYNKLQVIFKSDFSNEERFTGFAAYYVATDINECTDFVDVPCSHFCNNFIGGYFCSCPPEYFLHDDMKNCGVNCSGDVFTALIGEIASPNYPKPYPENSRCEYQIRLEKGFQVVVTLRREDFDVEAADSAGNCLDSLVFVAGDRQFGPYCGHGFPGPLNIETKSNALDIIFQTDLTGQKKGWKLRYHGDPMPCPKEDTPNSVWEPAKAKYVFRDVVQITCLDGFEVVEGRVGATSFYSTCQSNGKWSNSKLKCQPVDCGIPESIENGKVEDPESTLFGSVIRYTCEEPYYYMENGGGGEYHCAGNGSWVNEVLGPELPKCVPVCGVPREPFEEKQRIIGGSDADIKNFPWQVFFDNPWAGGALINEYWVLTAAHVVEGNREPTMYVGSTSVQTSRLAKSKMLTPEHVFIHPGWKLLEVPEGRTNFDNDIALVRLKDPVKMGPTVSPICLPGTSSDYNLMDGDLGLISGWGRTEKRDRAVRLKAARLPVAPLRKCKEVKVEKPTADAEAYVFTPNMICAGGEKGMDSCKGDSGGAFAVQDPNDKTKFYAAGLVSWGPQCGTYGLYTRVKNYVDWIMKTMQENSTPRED
T1 chain 2: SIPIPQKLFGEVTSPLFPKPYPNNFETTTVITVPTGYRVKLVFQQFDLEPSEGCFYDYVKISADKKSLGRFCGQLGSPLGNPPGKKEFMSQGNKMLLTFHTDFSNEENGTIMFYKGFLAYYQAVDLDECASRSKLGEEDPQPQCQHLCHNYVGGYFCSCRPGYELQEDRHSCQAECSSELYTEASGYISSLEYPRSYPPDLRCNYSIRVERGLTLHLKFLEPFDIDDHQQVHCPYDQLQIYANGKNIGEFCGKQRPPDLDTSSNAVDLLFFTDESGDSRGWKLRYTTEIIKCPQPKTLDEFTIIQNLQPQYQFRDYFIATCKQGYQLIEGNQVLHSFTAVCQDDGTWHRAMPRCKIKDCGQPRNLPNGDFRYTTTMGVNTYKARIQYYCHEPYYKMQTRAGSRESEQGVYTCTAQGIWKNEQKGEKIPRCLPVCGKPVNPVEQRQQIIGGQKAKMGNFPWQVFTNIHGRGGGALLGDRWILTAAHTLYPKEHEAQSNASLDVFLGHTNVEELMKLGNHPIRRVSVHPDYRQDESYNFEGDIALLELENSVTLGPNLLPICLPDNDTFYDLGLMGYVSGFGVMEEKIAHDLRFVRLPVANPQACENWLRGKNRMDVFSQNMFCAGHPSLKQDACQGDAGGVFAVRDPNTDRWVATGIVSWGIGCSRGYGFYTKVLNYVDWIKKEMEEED
Test: SPR (BIACORE T200), 37 C, Ab captured via anti-human Ig kappa, human C1r2s2 as analyte, pH 5.8
Provide the reported Kd of each item.
One number for each entry, in nM.

COS0637pHv8-TT91R (antibody, V domains shown) VH: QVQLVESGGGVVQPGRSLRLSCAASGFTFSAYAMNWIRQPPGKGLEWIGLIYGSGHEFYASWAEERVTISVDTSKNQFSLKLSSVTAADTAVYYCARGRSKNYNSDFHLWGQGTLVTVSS VL: DIQMTQSPSSLSASVGDRVTITCQANQILHDKKNLAWYQQKPGQPPKLLIYGASTLESGVPSRFSGSGSGTDFTLTISSLQPEDFATYYCHGEFSYSSADLNTFGQGTKVEIKR	874

Please find the next binder below.
Q: Which Kd reading was recorded for the binder COS0637pHv4-TT91R (antibody, V domains shown) VH: QVQLVESGGGVVQPGRSLRLSCAASGFSFSAYAMNWIRQPPGKGLEWIGLIYGSGHEFYASWAEERVTISVDTSKNQFSLKLSSVTAADTAVYYCARGRSKNYVSGFHLWGQGTLVTVSS VL: DIQMTQSPSSLSASVGDRVTITCQASQILHDKKNLAWYQQKPGQPPKLLIYQASQLESGVPSRFSGSGSGTDFTLTISSLQPEDFATYYCHGEFSYESADLNQFGQGTKVEIKR ?
Result: 811
